system: HL-60(TB) leukemia; assay: NCI-60 one-dose screen, 48 h; settings: 10 µM unless noted
Compounds without any hit were thinned out: in the full panel of roughly 83,000, 20% have a hit. Calls of active or inactive are those of the source. The calls were made as follows: active = growth percent below 10; inactive = the rest.
Form entry, call: pick from active, inactive

For orientation, consider the following solved cases.
- structure notation: "COc1ccc(-n2c(/C=C/c3ccc(O)c(OC)c3)cc(/C=C/c3ccc(O)c(OC)c3)nc2=O)cc1"
  class label: "inactive"
- structure notation: "C#Cc1cccc(Nc2nc3ccc([N+](=O)[O-])cc3nc2Nc2cccc(C#C)c2)c1"
  class label: "active"
- structure notation: "CCN(CC)CCOc1ccc(C(=O)/C=C\\c2ccc(Cl)cc2Cl)cc1"
  class label: "active"
- structure notation: "N#C/C(=C\\c1ccc([N+](=O)[O-])s1)c1nc2cc(Br)ccc2s1"
  class label: "inactive"

Let us examine a further case.
Could you kindly confirm the outcome this assay logged for O=[N+]([O-])/C(=C\c1ccco1)c1ccccc1Cl ? inactive

====

tested on: IGROV1 ovarian; test: NCI-60 one-dose screen, 48 h (100 = growth as untreated, 0 = no growth, -100 = all killed); conditions: 10 µM
The panel holds about 83,000 compounds, 20% with a hit somewhere; the sample as a whole holds those more often.
The following compounds are listed with their measured growth values.
Field format: number, assumed %, no unit text.

Sample answers from the record:
- compound: "N#CC1c2ccccc2C=CN1C(=O)c1ccc(N(CCCl)CCCl)cc1 (stereo not given)"
  value observed: 98.2
- compound: "N#CC1=C(N)Oc2cc3c(cc2C1c1cccs1)OCO3 (stereo not given)"
  value observed: 35.3
- compound: "COc1cc(NCCCCCN=C(N)N)c2ncccc2c1"
  value observed: 23.6
- compound: "CN1CCN(C(=O)COc2ccc(/C=C3\\CC4C5CC=C6CC(Cl)CCC6(C)C5CCC4(C)C3=O)cc2)CC1 (stereo not given)"
  value observed: 86.6
- compound: "C[CH2][Pb]([CH2]C)([CH2]C)[O]C(=O)COC"
  value observed: -13
- compound: "O=C(NCc1ccc([N+](=O)[O-])cc1)Nc1ccc(S(=O)(=O)F)cc1"
  value observed: 94.8
- compound: "S=P(Nc1ccccc1)(Nc1ccccc1)c1ccccc1"
  value observed: 101
- compound: "CC[C@]12C=CCN3CC[C@@]4(c5ccc(OC)cc5N(C)[C@H]4[C@@](O)(C(=O)OC)[C@@H]1OC(=O)CCCN1CCN(CCCC(=O)O[C@@H]4[C@]5(CC)C=CCN6CC[C@@]7(c8ccc(OC)cc8N(C)[C@H]7[C@@]4(O)C(=O)OC)[C@@H]65)CC1)[C@@H]32"
  value observed: -76.6
- compound: "CC(=O)N(C)C1=Nc2ccc(Cl)cc2C(c2ccccc2)=[N+]([O-])C1"
  value observed: 106

Would you kindly look at the next entry?
Item under review: O=[N+]([O-])c1ccc(/C=C/C=C/c2ccc(S(=O)(=O)F)cc2)c(Cl)c1 . Reported growth? 104

====

tested on: HL-60(TB) leukemia; test: NCI-60 one-dose screen, 48 h (100 = growth as untreated, 0 = no growth, -100 = all killed); conditions: 10 µM unless noted
About 83,000 compounds went through this panel and 20% of them were active in at least one assay; those are over-represented in the sample as a whole. Active and inactive are the calls of the source. The calls were made as follows: active = growth percent below 10; inactive = the rest.
measured endpoint: growth

- molecule: "CCn1c(-c2nonc2N)nc2c(C#CC(C)(C)O)ncc(OC[C@H]3CCCNC3)c21"
  measured endpoint: "growth"
  value observed: "41% (inactive)"
- molecule: "CN(C)CC1C(=O)O[C@H]2[C@H]1CC/C(COC(=O)NCc1ccc(Cn3c(=O)sn(CCCI)c3=O)cc1)=C\\CC[C@@]1(C)O[C@@H]21 (stereo partly drawn)"
  measured endpoint: "growth"
  value observed: "-36.5% (active)"
- molecule: "Fc1ccc(C2=NN(c3ccccc3)C(c3sc(N(CCCl)CCCl)nc3Cl)C2)cc1 (stereo not drawn)"
  measured endpoint: "growth"
  value observed: "103% (inactive)"
- molecule: "CCCCN(C)N=Nc1ccc(C(N)=O)cc1"
  measured endpoint: "growth"
  value observed: "73.5% (inactive)"
- molecule: "COc1cc2c(c(OC)c1OC)CCC(c1cccc(C(=O)Nc3ccc([N+](=O)[O-])cc3)c1)O2 (stereo not drawn)"
  measured endpoint: "growth"
  value observed: "38.8% (inactive)"

Would you kindly look at the next entry?
Item under review: CC[N+](C)(CC)CCO . Reported growth? 96.9% (inactive)
